assay: Differential index, LC50 for rat NRK 52E cells to LC50 for mouse 3LL cells; type: ADME, cell-based; details: NRK 52E cells versus 3LL cells
property: selectivity ratio

compound-smiles: CC(=O)NC1=CC(=O)c2ccc(-c3[nH]c(C(N)=O)cc4c5ccccc5nc3-4)nc2C1=O
result: 4.3

compound-smiles: CC(=O)NC1=CC(=O)c2ccc(-c3[nH]c(CO)cc4c5ccccc5nc3-4)nc2C1=O
result: 0.6

What does the data say about its selectivity ratio? Entry: CCCC(=O)NC1=CC(=O)c2ccc(-c3nc(C(=O)OC)cc4c3[nH]c3ccccc34)nc2C1=O
0.5

What does the data say about its selectivity ratio? Entry: CCCCOC(=O)c1cc2c([nH]c3ccccc32)c(-c2ccc3c(n2)C(=O)C(NC(=O)C(C)C)=CC3=O)n1
1

What does the data say about its selectivity ratio? Entry: CC(=O)NC1=CC(=O)c2ccc(-c3nc(C(=O)OCCC(C)C)c(C)c4c3[nH]c3ccccc34)nc2C1=O
0.6

What does the data say about its selectivity ratio? Entry: CC(=O)NC1=CC(=O)c2ccc(-c3nc(C(=O)OC4CCCCC4)cc4c3[nH]c3ccccc34)nc2C1=O
0.7

What does the data say about its selectivity ratio? Entry: CCCCOC(=O)c1cc2c([nH]c3ccccc32)c(-c2ccc3c(n2)C(=O)C(NC(=O)CCl)=CC3=O)n1
0.4

What does the data say about its selectivity ratio? Entry: CC(=O)NC1=CC(=O)c2ccc(-c3[nH]ccc4c5ccccc5nc3-4)nc2C1=O
0.1

What does the data say about its selectivity ratio? Entry: CCCC(=O)NC1=CC(=O)c2ccc(-c3nc(C(=O)OCCC(C)C)cc4c3[nH]c3ccccc34)nc2C1=O
0.4
